- Test system: MCF-7 estrogen receptor-positive breast cancer cells
- measurementProtocol: […]-GLO luminescent cell viability assay, MCF-7
- Assay type: cell-based
- statedConditions: Homo sapiens, MCF7, MCF-7 cells, 5000 cells/well, 72 h at 37° C.
testReadout: IC50 (µg/mL)

Here are 3 molecules together with their reported answers.
smilesNotation	IC50 [µg/mL]
COc1ccc(C(=O)NN2CCc3ccccc3C2)cc1	0.93
O=C(NN1CCc2ccccc2C1)c1ccccc1	0.63
O=C(NN1CCc2ccccc2C1)c1ccc(Cl)cc1	0.71

a. COc1ccc(S(=O)(=O)NN2CCc3ccccc3C2)cc1
b. Cc1ccc(C(=O)NN2CCc3ccccc3C2)cc1
When a and b are compared, which has the higher number for IC50? Indicate your choice by writing its label.
a
(a: 1.27 µg/mL, b: 0.7 µg/mL)

---

- System: Ishikawa cells
- measurementProtocol: […]-GLO luminescent cell viability assay, Ishikawa
- Type: cell-based
- statedConditions: Homo sapiens, 5000 cells/well, 72 h at 37° C.
testReadout: IC50 (µg/mL)
Numeric only. Scale: µg/mL

Here are 4 compounds together with their reported answers.
smilesNotation	testReadout	quantitativeReadout
COc1ccc(C(=O)NN2CCc3ccccc3C2)cc1	IC50	0.21
COc1ccc(S(=O)(=O)NN2CCc3ccccc3C2)cc1	IC50	0.45
O=C(NN1CCc2ccccc2C1)c1ccc(Cl)cc1	IC50	0.61
Cc1ccc(C(=O)NN2CCc3ccccc3C2)cc1	IC50	0.44

Now let's try a different one.
Returns the measured IC50 for the input compound. Input: O=C(NN1CCc2ccccc2C1)c1ccccc1
0.23

---

- System: MDA-MB-231 estrogen receptor-negative breast cancer cell line
- measurementProtocol: […]-GLO luminescent cell viability assay, MDA-MB-231
- Format: cell-based
- statedConditions: Homo sapiens, MDA-MB-231 cells, 5000 cells/well, 72 h at 37° C.
testReadout: IC50 (µg/mL)

compound	IC50 (µg/mL)
COc1ccc(S(=O)(=O)NN2CCc3ccccc3C2)cc1 [Redda-CM-3-13]	0.76
O=C(NN1CCc2ccccc2C1)c1ccc(Cl)cc1 [Redda-GM-3-18]	0.8
O=C(NN1CCc2ccccc2C1)c1ccccc1 [Redda-GM-3-15]	0.74
Cc1ccc(C(=O)NN2CCc3ccccc3C2)cc1 [Redda-GM-3-19]	1.02
COc1ccc(C(=O)NN2CCc3ccccc3C2)cc1 [Redda-GM-3-16]	0.78
